- Target Entity: TUFM (mitochondrial elongation factor Tu) (Mus musculus, UniProt Q8BFR5)
- Construct: endogenous protein in 3T3-L1 cell lysate
- Protocol Summary: DARTS (pronase protection) immunoblot, dose-dependent, and DARTS LC-MS/MS in 3T3-L1 lysate
Measurement Kind: pEC50
Answers are plain numbers, as −log10 of the molar value.

## Task Missing value: pEC50, TUFM (mitochondrial elongation factor Tu) (Mus musculus, UniProt Q8BFR5), entry COc1ccc(-c2oc3cc(O)cc(O)c3c(=O)c2O)cc1 [Kaem, kaempferide] . Fill in?
## Result 4.84
